I'd appreciate it if you could supply pKa values for the items below.
assay: pKa and enolate ionization of enol compounds
Assay type: physicochemical
Answers are plain numbers.

Here's what some known entries look like.
| compound | pKa |
| --- | --- |
| CCOC(=O)CC(=O)OCC [DEM, diethyl malonate] | 12.9 |
| COc1cc(/C=C/C(=O)CC(=O)/C=C/c2ccc(O)c(OC)c2)ccc1O [curcumin, reference compound] | 8 |

Now for a further compound.
Problem: Any idea what its pKa is? The compound is CC1(C)OC(=O)CC(=O)O1 [Meld. Acid, 2,2-dimethyl-1,3-dioxane-4,6-dione]
Solution: 4.8

* * *

assay: Kinetic assay of acrolein-induced N-acetyl cysteine (NAC) sulfhydryl loss (DTNB method)
measurementSetup: NAC + acrolein 150 μM + test compound 50 μM co-incubated, Krebs buffer pH 7.4, 30° C.
Decision: rate of sulfhydryl loss (mean rate±SE) beneath -20 nmol SH sec^−1 gives Fulfilled; rate of sulfhydryl loss (mean rate±SE) meeting or exceeding -20 nmol SH sec^−1 gives Not fulfilled.

| compound | discreteLabel |
| --- | --- |
| CC(=O)CC(=O)C(F)(F)F | Fulfilled |

Problem: Dear reviewer, please state whether O=C(CCc1ccc(O)cc1)c1c(O)cc(O)cc1O [phloretin, reference compound] has rate of sulfhydryl loss (mean rate±SE) strictly beneath -20 nmol SH sec^−1.
Solution: Not fulfilled

Problem: Is it true that rate of sulfhydryl loss (mean rate±SE) reported for C=CC=O is less than -20 nmol SH sec^−1?
Solution: Fulfilled

Problem: Here's an entry: CC(=O)CC(C)=O . Is its rate of sulfhydryl loss (mean rate±SE) below -20 nmol SH sec^−1?
Solution: Fulfilled

Problem: In the record for CC1(C)CC(=O)CC(=O)C1 , is rate of sulfhydryl loss (mean rate±SE) less than -20 nmol SH sec^−1?
Solution: Not fulfilled

* * *

assay: pKa and enolate ionization of enol compounds
Format: physicochemical
# pKa >= 9 gives label 1, anything below gives label 0

Some entries whose results are on file:
| compound | discreteLabel |
| --- | --- |
| O=C(CCc1ccc(O)cc1)c1c(O)cc(O)cc1O [phloretin, reference compound] | label 0 |
| CC(=O)C(C)C(C)=O | label 1 |
| CC1(C)CC(=O)CC(=O)C1 | label 0 |

Would you kindly look at the next entry?
Problem: Is the recorded value of pKa equal to or greater than 9 for this compound? CC(=O)C1CCCC1=O (centres unmarked)
Solution: label 0
